The reported numbers originate from ChEMBL document CHEMBL4834473.

The following molecules each carry a recorded IC50 for Acetylcholinesterase (Electrophorus electricus).
The response must be a number in µM with no trailing unit.

Some molecules with known IC50 results, for comparison:
- COc1ccc(CNc2cc3c(=O)n4c(nc3cc2C)CCC4)c(O)c1: 0.34
- Cc1cc2nc3n(c(=O)c2cc1NCc1ccc(Cl)cc1O)CCC3: 3.07
- COc1ccc(CNc2ccc3nc4n(c(=O)c3c2)CCC4)c(O)c1: 0.38

**Query** Look up IC50 with Acetylcholinesterase (Electrophorus electricus) for this molecule: Cc1cc2nc3n(c(=O)c2cc1NCc1cc(Br)ccc1O)CCC3
Sequence (O42275 whole entry): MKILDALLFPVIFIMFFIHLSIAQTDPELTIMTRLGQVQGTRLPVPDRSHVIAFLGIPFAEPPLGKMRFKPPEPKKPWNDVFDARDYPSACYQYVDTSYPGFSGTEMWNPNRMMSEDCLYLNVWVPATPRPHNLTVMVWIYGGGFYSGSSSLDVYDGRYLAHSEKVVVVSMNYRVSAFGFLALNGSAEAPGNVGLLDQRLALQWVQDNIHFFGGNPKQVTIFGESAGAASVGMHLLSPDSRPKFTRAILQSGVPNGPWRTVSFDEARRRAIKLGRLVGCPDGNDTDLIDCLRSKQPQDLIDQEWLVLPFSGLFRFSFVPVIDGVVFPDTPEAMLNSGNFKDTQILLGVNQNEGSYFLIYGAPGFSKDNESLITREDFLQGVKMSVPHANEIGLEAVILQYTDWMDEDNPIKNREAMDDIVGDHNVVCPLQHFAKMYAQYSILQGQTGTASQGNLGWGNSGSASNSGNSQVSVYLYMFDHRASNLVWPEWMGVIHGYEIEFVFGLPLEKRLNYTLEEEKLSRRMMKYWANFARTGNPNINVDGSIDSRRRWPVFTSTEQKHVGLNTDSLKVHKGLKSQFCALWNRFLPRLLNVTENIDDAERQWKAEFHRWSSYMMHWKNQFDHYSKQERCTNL
**Result** 5.27

**Query** Look up IC50 with Acetylcholinesterase (Electrophorus electricus) for this molecule: O=c1c2cc(NCc3ccccc3O)ccc2nc2n1CCC2
**Result** 1.53

**Query** Look up IC50 with Acetylcholinesterase (Electrophorus electricus) for this molecule: O=c1c2cc(NCc3cccc(Br)c3O)ccc2nc2n1CCC2
**Result** 5.8

**Query** Look up IC50 with Acetylcholinesterase (Electrophorus electricus) for this molecule: O=c1c2cc(NCc3cc(F)ccc3O)ccc2nc2n1CCC2
**Result** 2.51

**Query** Look up IC50 with Acetylcholinesterase (Electrophorus electricus) for this molecule: COc1cccc(CNc2ccc3nc4n(c(=O)c3c2)CCC4)c1O
**Result** 0.9

**Query** Look up IC50 with Acetylcholinesterase (Electrophorus electricus) for this molecule: Cc1cc2nc3n(c(=O)c2cc1NCc1cccc(Br)c1O)CCC3
**Result** 6.35

**Query** Look up IC50 with Acetylcholinesterase (Electrophorus electricus) for this molecule: Cc1cc2nc3n(c(=O)c2cc1NCc1cc(F)ccc1O)CCC3
**Result** 2.7

**Query** Look up IC50 with Acetylcholinesterase (Electrophorus electricus) for this molecule: COc1cccc(CNc2cc3c(=O)n4c(nc3cc2C)CCC4)c1O
**Result** 0.83

**Query** Look up IC50 with Acetylcholinesterase (Electrophorus electricus) for this molecule: O=c1c2ccccc2nc2n1CCC2
**Result** 24

**Query** Look up IC50 with Acetylcholinesterase (Electrophorus electricus) for this molecule: Cc1cc2nc3n(c(=O)c2cc1NCc1ccccc1O)CCC3
**Result** 1.58

**Query** Look up IC50 with Acetylcholinesterase (Electrophorus electricus) for this molecule: O=c1c2cc(NCc3ccc(Cl)cc3O)ccc2nc2n1CCC2
**Result** 4.78

**Query** Look up IC50 with Acetylcholinesterase (Electrophorus electricus) for this molecule: O=c1c2cc(NCc3cc(Br)ccc3O)ccc2nc2n1CCC2
**Result** 5.51

---

Quick reference for IC50 among some molecules
# tested-on: Amyloid-beta precursor protein (Homo sapiens, UniProt P05067)
# Sequence (P05067 whole entry): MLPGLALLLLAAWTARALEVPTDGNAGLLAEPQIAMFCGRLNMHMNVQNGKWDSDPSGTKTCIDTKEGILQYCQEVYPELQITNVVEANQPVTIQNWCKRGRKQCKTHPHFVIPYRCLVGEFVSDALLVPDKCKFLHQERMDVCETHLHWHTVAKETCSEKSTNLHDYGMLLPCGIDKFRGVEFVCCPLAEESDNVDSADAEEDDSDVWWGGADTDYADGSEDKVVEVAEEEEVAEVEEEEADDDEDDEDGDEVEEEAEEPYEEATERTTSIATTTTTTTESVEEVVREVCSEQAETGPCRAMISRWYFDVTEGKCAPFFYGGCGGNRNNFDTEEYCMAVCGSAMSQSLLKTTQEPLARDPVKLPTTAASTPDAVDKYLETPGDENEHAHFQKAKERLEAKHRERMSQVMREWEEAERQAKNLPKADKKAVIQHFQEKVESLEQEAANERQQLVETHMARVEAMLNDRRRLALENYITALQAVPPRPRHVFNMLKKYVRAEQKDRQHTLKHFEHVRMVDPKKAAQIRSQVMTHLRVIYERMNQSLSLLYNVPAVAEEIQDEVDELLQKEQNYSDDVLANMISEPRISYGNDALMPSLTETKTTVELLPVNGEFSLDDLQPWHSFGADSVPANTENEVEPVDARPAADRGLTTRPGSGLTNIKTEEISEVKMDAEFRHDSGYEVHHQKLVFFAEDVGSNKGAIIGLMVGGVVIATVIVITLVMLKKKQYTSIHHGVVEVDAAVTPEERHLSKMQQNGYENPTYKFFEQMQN
# assay-method-text: Inhibition of human amyloid beta (1 to 42) self-induced aggregation measured after 48 hrs by ThT flourescence assay
The response must be a number in µM with no trailing unit.

* Cc1cc2nc3n(c(=O)c2cc1NCc1ccccc1O)CCC3 | 5.09
* Cc1cc2nc3n(c(=O)c2cc1NCc1cc(F)ccc1O)CCC3 | 6.33

Turning to the following molecule.
**Query** // IC50 lookup, key: COc1ccc(CNc2cc3c(=O)n4c(nc3cc2C)CCC4)c(O)c1
**Result** 3.22

---

# tested-on: UniProt P05067
# assay-method-text: Inhibition of human amyloid beta (1 to 42) self-induced aggregation measured after 48 hrs by ThT flourescence assay
Please use Condition met for IC50 under 7 µM and Condition not met for everything else, ties included.

Check out these entries, answers already filled in.
• O=c1c2cc(NCc3cc(Br)ccc3O)ccc2nc2n1CCC2 = Condition not met
• O=c1c2cc(NCc3ccccc3O)ccc2nc2n1CCC2 = Condition met
• Cc1cc2nc3n(c(=O)c2cc1NCc1ccc(Cl)cc1O)CCC3 = Condition met
• Cc1cc2nc3n(c(=O)c2cc1NCc1cc(Br)ccc1O)CCC3 = Condition not met
• COc1cccc(CNc2cc3c(=O)n4c(nc3cc2C)CCC4)c1O = Condition met

**Query** Is IC50 of Oc1c(I)cc(Cl)c2cccnc12 strictly below 7 µM?
**Result** Condition not met

**Query** Is IC50 of COc1ccc(CNc2ccc3nc4n(c(=O)c3c2)CCC4)c(O)c1 strictly below 7 µM?
**Result** Condition met
